The origin of these recorded values is PubChem BioAssay AID651549.

ASSAY_NOTES: GAPDH and PEG-3 promoter luciferase suppression – cell-based, luminescence, set 2, counter-screen for PEG-3 promoter inhibitor project, dose response (AID 651549)
SETUP_CONDITIONS: HeLa PEG-Prom-luciferase or GAPDH-reporter, 6/24 h, PEG-3, run 1, 24 h
The source made the active and inactive calls.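 How the source made its calls: active means compounds blocking the PEG3 reporter with IC50 up to 10 µM at either incubation, yet sparing the GAPDH control reporter; inactive means the rest.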
Outcomes you can answer with include only these: Y = active, N = inactive

Cc1oc(-c2ccc3c(c2)OCCO3)cc1C(=O)O = N
Cc1c(/C(O)=C2/C(=O)C(=O)N(Cc3cccnc3)C2c2ccccn2)cnn1-c1ccccc1 (stereo unspecified) = Y
CCOc1ccc(-n2cc(-c3ccccc3)c3c(N4CCOCC4)ncnc32)cc1 = N
COCCn1c(C)cc(C(=O)COc2ccc(C)nc2[N+](=O)[O-])c1C = N
COC(=O)c1ccc2nc(Nc3nc4ccc(F)cc4s3)sc2c1 = Y

In: Hi team, can someone confirm the assay call for "Nc1ncn([C@@H]2O[C@H](CO)[C@@H](O)[C@H]2O)c(=O)n1" ?
Out: N

In: Ok, now "Cc1ccc(-c2cn3nc(C)c(C)nc3n2)cc1"
Out: N

In: Ok, now "O=C(O)c1ccc(Nc2nc3c(s2)CCCC3)cc1"
Out: N

In: Ok, now "Cc1c(CN2CCC(CO)(CCOc3ccccc3)CC2)[nH]c2c(Cl)cccc12"
Out: N

In: Ok, now "CC(C)(C)c1ccc(Oc2ccc(N)cc2)cc1"
Out: Y

In: Ok, now CS(=O)(=O)Nc1cccc(NC(=O)C2Cc3c(-c4ccccc4)ccnc3O2)c1 (stereo unspecified)
Out: Y

====

ASSAY_NOTES: GAPDH and PEG-3 promoter luciferase suppression – cell-based, luminescence, set 2, counter-screen for PEG-3 promoter inhibitor project, dose response (AID 651549)
SETUP_CONDITIONS: HeLa PEG-Prom-luciferase or GAPDH-reporter, 6/24 h, GAPDH, run 1, 24 h
Active and inactive are the calls of the source.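 Rule for the calls: active = compounds blocking the PEG3 reporter with IC50 up to 10 µM at either incubation, yet sparing the GAPDH control reporter; inactive = the rest.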
Outcomes you can answer with include only these: 1 for active, -1 for inactive

Please review the entries below; each comes with its answer.
Cc1cc(C)cc(NS(=O)(=O)c2ccc3c(c2)c(=O)n(C)c(=O)n3C)c1 = 1
COc1ccc2[nH]c(=O)c(CN(Cc3cccnc3)S(=O)(=O)c3ccccc3F)cc2c1 = 1
CC(=O)OC1CC2(O)C3CCC4CC(O)CCC4(C)C3CCC2(C)C1C1=CC(=O)OC1 (stereo not given) = 1

In: Hi team, can someone confirm the assay call for "Cc1ccc(C)c(S(=O)(=O)N2CCN(c3ncnc4sccc34)CC2)c1" ?
Out: 1

In: Ok, now CC(CCc1ccccc1)NC(=O)COC(=O)c1ccc(S(C)(=O)=O)c([N+](=O)[O-])c1 (stereo not given)
Out: -1

====

ASSAY_NOTES: GAPDH and PEG-3 promoter luciferase suppression – cell-based, luminescence, set 2, counter-screen for PEG-3 promoter inhibitor project, dose response (AID 651549)
SETUP_CONDITIONS: HeLa PEG-Prom-luciferase or GAPDH-reporter, 6/24 h, GAPDH, run 1, 24 h
Activity calls are given as the source filed them.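 The calls were made as follows: active = compounds blocking the PEG3 reporter with IC50 up to 10 µM at either incubation, yet sparing the GAPDH control reporter; inactive = the rest.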
Outcomes you can answer with include only these: active, inactive

Please review the entries below; each comes with its answer.
Cc1c(/C(O)=C2/C(=O)C(=O)N(Cc3cccnc3)C2c2ccccn2)cnn1-c1ccccc1 (centres undefined) = active
C[C@]12CC[C@H]3C(CCC4(O)CC(O)CC[C@]34C=O)C1=CC[C@H]2c1ccc(=O)oc1 (some centres undefined) = inactive
NC(=O)c1cc([N+](=O)[O-])ccc1NCc1ccc(N)cc1 = inactive
COc1ccc(-n2cc(-c3ccccc3)c3c(N4CCOCC4)ncnc32)cc1 = active
Cc1ccc2nc(NC(=O)CSCC(=O)OCC(=O)c3ccccc3)sc2c1 = active
CC(=O)c1sc2c(c1OC(=O)c1ccc(Cl)cc1Cl)c(=O)n(-c1ccccc1)c(=S)n2-c1ccccc1 = active

In: Hi team, can someone confirm the assay call for "C=CCn1c(C)cc(C(=O)COc2ccc(C)nc2[N+](=O)[O-])c1C" ?
Out: inactive
